# system_tested: BIR3 domain of human XIAP (residues 238-358) (Homo sapiens (Human), UniProt P98170)
# Sequence (P98170 238-358): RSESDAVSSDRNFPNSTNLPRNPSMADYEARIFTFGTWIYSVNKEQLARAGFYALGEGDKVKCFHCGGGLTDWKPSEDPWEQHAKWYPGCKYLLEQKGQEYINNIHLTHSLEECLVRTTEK
# test_protocol: Fluorescence polarization competitive binding to XIAP BIR3
# experimental_parameters: FP, peptide probe 5 nM, XIAP BIR3 30 nM, 1 hour room temperature
measurement_label: pKi
Give bare numbers, as −log10 of the molar value.

In plain terms, "CN[C@@H](C)C(=O)N[C@H](C(=O)N1CCc2[nH]c(=O)c(Cc3ccc(F)cc3)cc21)C(C)(C)C" has a documented pKi of 8.09

In plain terms, "CN[C@@H](C)C(=O)N[C@H](C(=O)N1CCc2[nH]c(=O)c(Cc3ccc(F)cc3F)cc21)C(C)(C)C" has a documented pKi of 8.03

In plain terms, "CN[C@@H](C)C(=O)N[C@H](C(=O)N1CC(C)(C)c2cc(=O)n(Cc3ccc(F)cc3)cc21)C(C)(C)C" has a documented pKi of 6.54

In plain terms, [2H]C([2H])([2H])N[C@@H](C)C(=O)N[C@H](C(=O)N1CCc2cc(=O)n(Cc3ccc(F)cc3F)cc21)C(C)(C)C [Compound I-2-22] has a documented pKi of 7.68

Each molecule below has a recorded value; state its pKi.
1. CCn1c2c(cc(Cc3ccc(F)cc3F)c1=O)N(C(=O)[C@@H](NC(=O)[C@H](C)NC)C(C)(C)C)CC2
2. CN[C@@H](C)C(=O)N[C@H](C(=O)N1CCc2cc(=O)n(Cc3ccc(F)cc3F)cc21)C(C)(C)C
3. CN[C@@H](C)C(=O)N[C@H](C(=O)N1CC(C)(C)c2cc(=O)n(Cc3ccc(F)cc3F)cc21)C(C)(C)C
4. CN[C@@H](C)C(=O)N[C@H](C(=O)N1CCc2cc(=O)n(Cc3ccc(F)cc3O)cc21)C(C)(C)C
5. CN[C@@H](C)C(=O)N[C@H](C(=O)N1CCc2c1cc(Cc1ccc(F)cc1F)c(=O)n2CC(F)(F)F)C(C)(C)C
6. CN[C@@H](C)C(=O)N[C@H](C(=O)N1CC(C)(C)c2c1cc(Cc1ccc(F)cc1F)c(=O)n2C)C(C)(C)C

Result:
1. 7.91
2. 7.67
3. 7.15
4. 7.27
5. 8.15
6. 7.34

---

# System: MDA-MB-231 cancer cells
# test_protocol: Inhibitor-induced apoptosis, flow cytometry with Annexin V and propidium iodide
# Type: cell-based, human
# experimental_parameters: Drug concentration 100 nM, 3 hours
measurement_label: Proportion of apoptotic cells (%)
Numbers only, in %.

Consider the following illustrative entries.
In plain terms, "CN[C@@H](C)C(=O)N[C@H](C(=O)N1CCc2c1cc(Cc1ccc(F)cc1)c(=O)n2C)C(C)(C)C" has a documented Proportion of apoptotic cells of 52

In plain terms, "CN[C@@H](C)C(=O)N[C@H](C(=O)N1CCc2[nH]c(=O)c(Cc3ccc(F)cc3F)cc21)C(C)(C)C" has a documented Proportion of apoptotic cells of 54

In plain terms, "CN[C@@H](C)C(=O)N[C@H](C(=O)N1CCc2cc(=O)n(Cc3ccc(F)cc3F)cc21)C1CCCCC1" has a documented Proportion of apoptotic cells of 45

In plain terms, "CN[C@@H](C)C(=O)N[C@H](C(=O)N1CC(C)(C)c2cc(=O)n(Cc3ccc(F)cc3)cc21)C(C)(C)C" has a documented Proportion of apoptotic cells of 45

In plain terms, "CN[C@@H](C)C(=O)N[C@H](C(=O)N1CCc2cc(=O)n(Cc3ccc(F)cc3F)cc21)C(C)(C)C" has a documented Proportion of apoptotic cells of 53

Each compound below has a recorded value; state its Proportion of apoptotic cells.
1. CN[C@@H](C)C(=O)N[C@H](C(=O)N1CCc2cc(=O)n(Cc3ccc(F)cc3O)cc21)C(C)(C)C
2. CN[C@@H](C)C(=O)N[C@H](C(=O)N1CCc2cc(=O)n(Cc3ccc(F)cc3)cc21)C(C)(C)C

Result:
1: 50; 2: 48

---

# Tested on: MDA-MB-231 human breast cancer cells
# test_protocol: WST-8 cell proliferation assay, MDA-MB-231
# Assay type: cell-based
# experimental_parameters: 72 hours
measurement_label: IC50 (nM)
Numbers only, in nM.

Consider the following illustrative entries.
In plain terms, "[2H]C([2H])([2H])N[C@@H](C)C(=O)N[C@H](C(=O)N1CC(C)(C)c2cc(=O)n(Cc3ccc(F)cc3)cc21)C(C)(C)C" has a documented IC50 of 29

In plain terms, "CN[C@@H](C)C(=O)N[C@H](C(=O)N1CC(C)(C)c2cc(=O)n(Cc3ccc(F)cc3O)cc21)C(C)(C)C" has a documented IC50 of 28

Continuing:
In plain terms, "CN[C@@H](C)C(=O)N[C@H](C(=O)N1CCc2cc(=O)n(Cc3ccc(F)cc3F)cc21)C(C)(C)C" has a documented IC50 of 3

---

Kindly supply the reported Ki values for the records listed here.
# system_tested: BIR3 domain of human cIAP2 (residues 236-342) (Homo sapiens (Human), UniProt Q13489)
# Sequence (Q13489 236-342): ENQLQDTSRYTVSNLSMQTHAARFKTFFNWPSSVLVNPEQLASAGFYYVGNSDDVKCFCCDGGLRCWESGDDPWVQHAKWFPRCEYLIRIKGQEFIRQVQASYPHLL
# test_protocol: Fluorescence polarization competitive binding to cIAP2 BIR3
# experimental_parameters: FP, peptide probe 5 nM, cIAP2 BIR3 10 nM, 1 hour room temperature
Give bare numbers, in nM.

In plain terms, "[2H]C([2H])([2H])N[C@@H](C)C(=O)N[C@H](C(=O)N1CCc2cc(=O)n(Cc3ccc(F)cc3)cc21)C1CCCCC1" has a documented Ki of 4

In plain terms, "C[C@H](N)C(=O)N[C@H](C(=O)N1CCc2cc(=O)n(Cc3ccc(F)cc3F)cc21)C(C)(C)C" has a documented Ki of 1.5

In plain terms, "CN[C@@H](C)C(=O)N[C@H](C(=O)N1CCc2[nH]c(=O)c(Cc3ccc(F)cc3F)cc21)C(C)(C)C" has a documented Ki of 2.4

In plain terms, "[2H]C([2H])([2H])N[C@@H](C)C(=O)N[C@H](C(=O)N1CC(C)(C)c2cc(=O)n(Cc3ccc(F)cc3F)cc21)C(C)(C)C" has a documented Ki of 6.7

In plain terms, "CN[C@@H](C)C(=O)N[C@H](C(=O)N1CCc2cc(=O)n(Cc3ccc(F)cc3)cc21)C(C)(C)C" has a documented Ki of 1.7

In plain terms, "CN[C@@H](C)C(=O)N[C@H](C(=O)N1CCc2cc(=O)n(Cc3ccc(F)cc3F)cc21)C1CCCCC1" has a documented Ki of 3.2

Next up:
In plain terms, "CN[C@@H](C)C(=O)N[C@H](C(=O)N1CC(C)(C)c2c1cc(Cc1ccc(F)cc1F)c(=O)n2C)C(C)(C)C" has a documented Ki of 5.2

---

Kindly supply the reported pIC50 values for the records listed here.
# Test system: MDA-MB-231 human breast cancer cells
# test_protocol: WST-8 cell proliferation assay, MDA-MB-231
# Type: cell-based
# experimental_parameters: 72 hours
Answers are plain numbers, as −log10 of the molar value.

In plain terms, CN[C@@H](C)C(=O)N[C@H]1CN(C(=O)CC(C)C)CC[C@H]2CC[C@@H](C(=O)NC(c3ccccc3)c3ccccc3)N2C1=O [SM-406, reference compound] has a documented pIC50 of 7.48

In plain terms, "CN[C@@H](C)C(=O)N[C@H](C(=O)N1CCc2cc(=O)n(Cc3ccc(F)cc3O)cc21)C(C)(C)C" has a documented pIC50 of 8.05

In plain terms, "CN[C@@H](C)C(=O)N[C@H](C(=O)N1CCc2cc(=O)n(Cc3ccc(F)cc3)cc21)C(C)(C)C" has a documented pIC50 of 8.30

In plain terms, "[2H]C([2H])([2H])N[C@@H](C)C(=O)N[C@H](C(=O)N1CCc2cc(=O)n(Cc3ccc(F)cc3F)cc21)C(C)(C)C" has a documented pIC50 of 8.52

In plain terms, "[2H]C([2H])([2H])N[C@@H](C)C(=O)N[C@H](C(=O)N1CCc2cc(=O)n(Cc3ccc(F)cc3)cc21)C1CCCCC1" has a documented pIC50 of 8.05

Next up:
In plain terms, "CN[C@@H](C)C(=O)N[C@H](C(=O)N1CC(C)(C)c2cc(=O)n(Cc3ccc(F)cc3F)cc21)C1CCCCC1" has a documented pIC50 of 7.74

---

Kindly supply the reported Ki values for the records listed here.
# system_tested: BIR3 domain of human cIAP2 (residues 236-342) (Homo sapiens (Human))
# test_protocol: Fluorescence polarization competitive binding to cIAP2 BIR3
# experimental_parameters: FP, peptide probe 5 nM, cIAP2 BIR3 10 nM, 1 hour room temperature
Answers are plain numbers, in nM.

For the compound [2H]C([2H])([2H])N[C@@H](C)C(=O)N[C@H](C(=O)N1CCc2cc(=O)n(Cc3ccc(F)cc3F)cc21)C(C)(C)C [Compound I-2-22] , the measured Ki on BIR3 domain of human cIAP2 (residues 236-342) (Homo sapiens (Human)) was 1.5

For the compound "CN[C@@H](C)C(=O)N[C@H](C(=O)N1CC(C)(C)c2cc(=O)n(Cc3ccc(F)cc3F)cc21)C(C)(C)C" , the measured Ki on BIR3 domain of human cIAP2 (residues 236-342) (Homo sapiens (Human)) was 6.9

For the compound "CCn1c2c(cc(Cc3ccc(F)cc3F)c1=O)N(C(=O)[C@@H](NC(=O)[C@H](C)NC)C(C)(C)C)CC2" , the measured Ki on BIR3 domain of human cIAP2 (residues 236-342) (Homo sapiens (Human)) was 1.6

Continuing:
For the compound "CN[C@@H](C)C(=O)N[C@H](C(=O)N1CCc2c1cc(Cc1ccc(F)cc1F)c(=O)n2CC(F)(F)F)C(C)(C)C" , the measured Ki on BIR3 domain of human cIAP2 (residues 236-342) (Homo sapiens (Human)) was 2.1
